Data origin: paper PMC9259647

# SYSTEM_UNDER_TEST: HXYN2 (Humicola insolens)
# Construct: made in house; host or cells: Pichia pastoris GS115 (vector pHIL-D2), purified from culture supernatant
# Sequence (P55334 20-227): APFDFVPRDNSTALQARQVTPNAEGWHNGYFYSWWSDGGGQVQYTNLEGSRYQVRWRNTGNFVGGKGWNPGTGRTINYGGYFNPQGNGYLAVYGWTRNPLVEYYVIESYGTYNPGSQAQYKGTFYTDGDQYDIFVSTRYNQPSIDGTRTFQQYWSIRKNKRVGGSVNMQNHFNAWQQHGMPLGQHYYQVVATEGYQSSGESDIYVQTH
# ASSAY_TEXT: Isothermal titration calorimetry of HXYN2 with FA
# Assay type: binding, Humicola grisea var. thermoidea
# CONDITION_SET: dissociation constant (Kd), range over four sites
pKd: −log10 of the molar value.
ATTRIBUTE_MEASURED: pKd

Problem: What does the data say about its pKd? Entry: COc1cc(/C=C/C(=O)O)ccc1O [FA]
Solution: 5.63 to 7.17
